Method Summary: amyloid nucleation score (Sup35N fusion, yeast selection) (log enrichment); library NNK1; higher = more nucleation; inactive = no reads after selection;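 also: zero at mode of non-aggregating sequences after 7 days selection at 30°C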
Below, each of the substances is paired with its reported amyloid nucleation score value.
Enter the number alone.

Input: I have this substance here, FRDCLLVRYLCNVLTGDCTH , and I need its recorded amyloid nucleation score.
Output: 1.94

Input: I have this substance here, NKTMGMKSYFLGNIFYMYGW , and I need its recorded amyloid nucleation score.
Output: 5.21

Input: I have this substance here, LMFSDGWFLNGEISPWVGF , and I need its recorded amyloid nucleation score.
Output: -0.393

Input: I have this substance here, AACLCLYAFGRYVVTRCYGR , and I need its recorded amyloid nucleation score.
Output: -0.068

Input: I have this substance here, LKAIFVFFVEFRDPLIMRES , and I need its recorded amyloid nucleation score.
Output: 0.269

Input: I have this substance here, NALILRGLVCLSWKLELTHF , and I need its recorded amyloid nucleation score.
Output: -0.866

====

Method Summary: amyloid nucleation score (Sup35N fusion, yeast selection) (log enrichment); library NNK3; higher = more nucleation; inactive = no reads after selection
Below, each of the substances is paired with its reported amyloid nucleation score value.
Enter the number alone.

Before answering, review these 4 worked examples.
1) LNCVSQMRVDRDANYSCNFF = -0.142
2) FDIIVQITYHVWNMNVHF = 0.932
3) WKNLSYRGFHYWTALWHMVR = -0.12
4) KMFSLWFQ = 1.69

Input: I have this substance here, VMTAGWYLFLLSGSEGYVVS , and I need its recorded amyloid nucleation score.
Output: -0.325

Input: I have this substance here, FRFYLCDDFMCNVLHYQPRN , and I need its recorded amyloid nucleation score.
Output: 3.19

Input: I have this substance here, STDLVIFMSTLPVCSCYCGQ , and I need its recorded amyloid nucleation score.
Output: 1.72

====

Method Summary: amyloid nucleation score (Sup35N fusion, yeast selection) (log enrichment); library NNK3; higher = more nucleation; inactive = no reads after selection
Measured Quantity: amyloid nucleation score

Before answering, review these 5 worked examples.
1) GVLLTYSCSRQLSPDFNCFC = 1.62
2) GLITWT = inactive
3) YLTMLWLFHLRERAALMGLN = inactive
4) NMQLVYDRMDE = inactive
5) YGNHFSNNDGSIFER = inactive

Input: I have this substance here, LLFSGHYVGAYLGYVFPICS , and I need its recorded amyloid nucleation score.
Output: inactive

====

Method Summary: amyloid nucleation score (Sup35N fusion, yeast selection) (log enrichment); library NNK3; higher = more nucleation; inactive = no reads after selection
Measured Quantity: amyloid nucleation score

Before answering, review these 4 worked examples.
1) MRLRLYINVSG = inactive
2) NLNSFSGAFVLIWGATVHFC = 1.96
3) KYCYIEWN = inactive
4) STIFTVAVFDCNEHLARSKS = inactive

Input: I have this substance here, ASEFKTSWWNV , and I need its recorded amyloid nucleation score.
Output: -0.549

Input: I have this substance here, GNIFRRYTVPSDANTKTWIY , and I need its recorded amyloid nucleation score.
Output: inactive

Input: I have this substance here, STLASSS , and I need its recorded amyloid nucleation score.
Output: inactive

Input: I have this substance here, YYPLLIPLY , and I need its recorded amyloid nucleation score.
Output: inactive

Input: I have this substance here, VAAMSVFSVGCLINIALRSN , and I need its recorded amyloid nucleation score.
Output: 0.93

Input: I have this substance here, KVSCEYSNNKWF , and I need its recorded amyloid nucleation score.
Output: inactive

====

Method Summary: amyloid nucleation score (Sup35N fusion, yeast selection) (log enrichment); library NNK1; higher = more nucleation; inactive = no reads after selection
Measured Quantity: amyloid nucleation score
Enter the number alone.

Before answering, review these 5 worked examples.
1) LRHTCVRPSWSNAIFMPNSA = 0.834
2) MCDIFAMLLIYQFDGKGTV = 0.151
3) RSGLCFMCSFEKSVSSR = 0.255
4) DCCGFNFYWISPRFHLRECL = 0.831
5) GNIFAYGT = -0.611

// switching to the query substance
Input: I have this substance here, GGRNWFYRALR , and I need its recorded amyloid nucleation score.
Output: 0.362

====

Method Summary: amyloid nucleation score (Sup35N fusion, yeast selection) (log enrichment); library NNK2; higher = more nucleation; inactive = no reads after selection
Decide using amyloid nucleation score: a value greater than or equal to -0.5 is 1, a smaller one is -1.

Reference set (5 entries):
1) RGTMVWTDCFMCLGLYKKVY = -1
2) KVRFHSL = 1
3) KVWECLEAGNFGVDMRWCDR = 1
4) FQGEGISTAF = -1
5) YFGCQMMSN = 1

Then this substance:
Input: Reported amyloid nucleation score reaches at least -0.5 for FKSIDISAFSSSSHTGSYLG ?
Output: 1

====

Below, each of the substances is paired with its reported amyloid nucleation score value.
Method Summary: amyloid nucleation score (Sup35N fusion, yeast selection) (log enrichment); library NNK2; higher = more nucleation; inactive = no reads after selection
Enter the number alone.

Before answering, review these 3 worked examples.
1. LSYVWYTQIARPGNSGFNLL = 2.12
2. SVCLSSYFHCKRSVMWFYKV = -0.363
3. SLGNVHRLL = -0.246

Input: I have this substance here, RTDMALALQ , and I need its recorded amyloid nucleation score.
Output: 0.973

Input: I have this substance here, CSFLYIGLVIPSFEYDHALL , and I need its recorded amyloid nucleation score.
Output: 4.17

Input: I have this substance here, GFGNFVINDWSLR , and I need its recorded amyloid nucleation score.
Output: -1.56

Input: I have this substance here, CRSWTHKSHIPVKLSNDTMS , and I need its recorded amyloid nucleation score.
Output: -0.106

Input: I have this substance here, EVDVIS , and I need its recorded amyloid nucleation score.
Output: -0.885

Input: I have this substance here, NRKTIIVEPTNACRS , and I need its recorded amyloid nucleation score.
Output: 0.775

Input: I have this substance here, WGTDISYMGRSGCTLSGCIY , and I need its recorded amyloid nucleation score.
Output: -1.13

Input: I have this substance here, QSSNLMGL , and I need its recorded amyloid nucleation score.
Output: -0.338

Input: I have this substance here, CGSQKWVQYKIMKWYK , and I need its recorded amyloid nucleation score.
Output: 0.627

Input: I have this substance here, YNKLRPGATCHLETWS , and I need its recorded amyloid nucleation score.
Output: -0.614

Input: I have this substance here, PWWLWVGSMYENYGFAPFWV , and I need its recorded amyloid nucleation score.
Output: -0.969

Input: I have this substance here, TALATDTSFRRSRRQTNQIF , and I need its recorded amyloid nucleation score.
Output: 0.706

Input: I have this substance here, VYSPFLICI , and I need its recorded amyloid nucleation score.
Output: 0.174

Input: I have this substance here, MLSEADNLRRSYRHRIYEFI , and I need its recorded amyloid nucleation score.
Output: -0.874

Input: I have this substance here, IIVSATSEGSLRRIRMKMGW , and I need its recorded amyloid nucleation score.
Output: 4.27

Input: I have this substance here, ACLGHSLAVVRTMTDSRKRL , and I need its recorded amyloid nucleation score.
Output: 0.367

Input: I have this substance here, RARIWALGYSLEEIRRGLED , and I need its recorded amyloid nucleation score.
Output: 3.19

Input: I have this substance here, EKFYLDLG , and I need its recorded amyloid nucleation score.
Output: -0.006

Input: I have this substance here, IWLDSHSSAWISWTIMI , and I need its recorded amyloid nucleation score.
Output: -0.585

Input: I have this substance here, FFDNPMHKTYSGSAARARLS , and I need its recorded amyloid nucleation score.
Output: -0.375

====

Method Summary: amyloid nucleation score (Sup35N fusion, yeast selection) (log enrichment); library NNK3; higher = more nucleation; inactive = no reads after selection
Measured Quantity: amyloid nucleation score

Before answering, review these 10 worked examples.
1) KWFAATVLSNKPREEKRMVT = inactive
2) VSGVECSCD = 0.762
3) LWLGWNRKWQFSWPAAGRFL = inactive
4) YFLRVNGSCANIDDHGLFSW = inactive
5) SEVFNQLGTARSNMARRACA = inactive
6) YRAKNSDRCPGDAYTYFVLR = inactive
7) KMQISTKVCDMDLFCPKTIP = inactive
8) SSVRMRISFMINGRQTA = 0.833
9) HMLHVWYFLGRQYANTFCYM = inactive
10) RFNHMRNGFWRSIS = inactive

Input: I have this sequence here, FTPARRLSRLIVFCFG , and I need its recorded amyloid nucleation score.
Output: inactive

Input: I have this sequence here, AFKLYWKYCRYNPWVRNR , and I need its recorded amyloid nucleation score.
Output: inactive

Input: I have this sequence here, TFLNSNFFPIWLVVCASA , and I need its recorded amyloid nucleation score.
Output: inactive

Input: I have this sequence here, LCSHLEVDSL , and I need its recorded amyloid nucleation score.
Output: inactive
